# credit: ChEMBL document CHEMBL1201862

tested on: Malme-3M; experiment: NCI tumour cell line growth inhibition, 48 h
The source made the active and inactive calls. Rule as the data show it: active = GI50 up to about 1.1 µM and inactive = higher.
measured quantity: GI50

[
  {
    "molecule": "O=C(O)c1cccc(Nc2c(C(=O)O)cccc2[N+](=O)[O-])c1",
    "measured quantity": "GI50",
    "result": "38.5 µM (inactive)"
  },
  {
    "molecule": "CC(C)/C(Cl)=N\\OC(=O)Nc1cccc(F)c1",
    "measured quantity": "GI50",
    "result": "6.24 µM (inactive)"
  },
  {
    "molecule": "Cc1ccc(NC(=O)c2cc(S(=O)(=O)Nc3n[nH]c(=O)n3-c3ccccc3)c(S)cc2Cl)cc1",
    "measured quantity": "GI50",
    "result": "> 100 µM (inactive)"
  },
  {
    "molecule": "Cc1ccc(S(=O)(=O)C2CC2(Cl)Cl)cc1 (configuration not stated)",
    "measured quantity": "GI50",
    "result": "19.6 µM (inactive)"
  },
  {
    "molecule": "CCCc1nnc2sc(COc3ccc(OCc4nn5c(CCC)nnc5s4)c(Cl)c3)nn12",
    "measured quantity": "GI50",
    "result": "22.1 µM (inactive)"
  },
  {
    "molecule": "COC(=O)/C(C#N)=C(/NCCN)Nc1ccccc1",
    "measured quantity": "GI50",
    "result": "> 100 µM (inactive)"
  },
  {
    "molecule": "COc1cccc(C2C(C(=O)Nc3cc(=O)n(C)c(=O)n3C)=C(C)NC(C)=C2C(=O)Nc2cc(=O)n(C)c(=O)n2C)c1O",
    "measured quantity": "GI50",
    "result": "> 100 µM (inactive)"
  },
  {
    "molecule": "CCOC(=O)C(=O)C(/C(=N/N(C)C)C(=O)Nc1ccc(C)cc1C)c1nc2ccccc2nc1O (configuration not stated)",
    "measured quantity": "GI50",
    "result": "> 100 µM (inactive)"
  },
  {
    "molecule": "CC(C)(C)OC(=O)NCCCCC(N)C(N)=O (configuration not stated)",
    "measured quantity": "GI50",
    "result": "> 100 µM (inactive)"
  },
  {
    "molecule": "CCCCC1(C)C=C/C(=C2/C(=O)O/C(=C\\C(=O)O)C2=O)O1 (configuration not stated)",
    "measured quantity": "GI50",
    "result": "> 100 µM (inactive)"
  },
  {
    "molecule": "Cc1ccc(SSCCCCCS(=O)O)cc1",
    "measured quantity": "GI50",
    "result": "18.3 µM (inactive)"
  },
  {
    "molecule": "CC(C)(C)NNC(=O)/C(=C/c1ccc([N+](=O)[O-])cc1)NC(=O)c1ccccc1",
    "measured quantity": "GI50",
    "result": "> 100 µM (inactive)"
  },
  {
    "molecule": "S=C1Nc2ccccc2SC1c1ccccc1 (configuration not stated)",
    "measured quantity": "GI50",
    "result": "92.3 µM (inactive)"
  },
  {
    "molecule": "OCc1c[te]c(-c2ccccc2)c1",
    "measured quantity": "GI50",
    "result": "> 100 µM (inactive)"
  },
  {
    "molecule": "O=c1[nH]cc(F)c(=O)n1C1OC(CO)C(O)C1O (configuration not stated)",
    "measured quantity": "GI50",
    "result": "> 100 µM (inactive)"
  },
  {
    "molecule": "CCCNc1[nH]c(C(C)=O)c(N)c1C(=S)Nc1ccccc1",
    "measured quantity": "GI50",
    "result": "28 µM (inactive)"
  },
  {
    "molecule": "Cc1ccc(S(=O)(=O)NC(CN)C(=O)O)cc1 (configuration not stated)",
    "measured quantity": "GI50",
    "result": "> 100 µM (inactive)"
  },
  {
    "molecule": "COc1cc2nn(-c3ccccc3)nc2c2nonc12",
    "measured quantity": "GI50",
    "result": "> 100 µM (inactive)"
  },
  {
    "molecule": "CC(C)(Oc1ccc(-c2cccc3ccccc23)cc1)C(=O)O",
    "measured quantity": "GI50",
    "result": "> 100 µM (inactive)"
  },
  {
    "molecule": "CC(=O)Oc1ccc(/C=C/C(=O)O[C@@H](C(=O)O)[C@@H](OC(=O)/C=C/c2ccc(OC(C)=O)c(OC(C)=O)c2)C(=O)O)cc1OC(C)=O",
    "measured quantity": "GI50",
    "result": "> 100 µM (inactive)"
  },
  {
    "molecule": "COc1ccc(C)cc1Nc1nnc(-c2ccccc2N)s1",
    "measured quantity": "GI50",
    "result": "40.6 µM (inactive)"
  },
  {
    "molecule": "O=[N+]([O-])c1ccc2c(c1)nc(Cc1ccc(Cl)cc1)n2C[C@@H]1CCCN2CCCCC12 (some centres not stated)",
    "measured quantity": "GI50",
    "result": "9.16 µM (inactive)"
  }
]
